system: HT-29 (colon) cancer cells; assay: In vitro cytotoxicity assessment (MTT), HT-29; format: cell-based, human; conditions: Homo sapiens, HT-29; 48 h, MTT; mean of three experiments ± SD; NA: not active
measured.property: IC50 (µM)
// units = µM; emit number, no label

Quick check: IC50 of Cc1[nH]c(=S)[nH]c(=O)c1S(=O)(=O)Nc1ccc([N+](=O)[O-])cc1 ?
6.4

Quick check: IC50 of COc1ccc(NS(=O)(=O)c2c(C)[nH]c(=S)[nH]c2=O)cc1 ?
5.1

Quick check: IC50 of Cc1[nH]c(=S)[nH]c(=O)c1S(=O)(=O)Nc1ccc(Br)cc1 ?
5.05

Quick check: IC50 of Cc1[nH]c(=S)[nH]c(=O)c1S(=O)(=O)Nc1ccccc1 ?
11.3

###

For each of the compounds below, state its melting point.

Quick check: melting point of Cc1ccc(NS(=O)(=O)c2c(C)[nH]c(=S)[nH]c2=O)cc1 ?
313 to 315 °C

Quick check: melting point of Cc1[nH]c(=S)[nH]c(=O)c1S(=O)(=O)C1Cc2ccccc2C1=O (centres unmarked) ?
348 to 350 °C

Quick check: melting point of Cc1[nH]c(=S)[nH]c(=O)c1S(=O)(=O)NNC(=O)c1ccccc1Cl ?
334 to 336 °C

Quick check: melting point of COc1ccc(NS(=O)(=O)c2c(C)[nH]c(=S)[nH]c2=O)cc1 ?
320 to 322 °C

Quick check: melting point of Cc1[nH]c(=S)[nH]c(=O)c1S(=O)(=O)Nc1ccc(Br)cc1 ?
333 to 335 °C

Quick check: melting point of Cc1[nH]c(=S)[nH]c(=O)c1S(=O)(=O)Nc1cccc(C(=O)C=Cc2ccc(Cl)cc2)c1 ?
315 to 317 °C

Quick check: melting point of Cc1[nH]c(=S)[nH]c(=O)c1S(=O)(=O)C1C(=O)CC(C)(C)CC1=O ?
340 to 342 °C

Quick check: melting point of Cc1[nH]c(=S)[nH]c(=O)c1S(=O)(=O)Nc1cccc(C(=O)C=Cc2ccc(Br)cc2)c1 ?
335 to 337 °C

###

biological target: CDK2/CyclinA2 (Homo sapiens, UniProt P24941); construct: purchased #79599; test: In vitro inhibitory screening of CDK2 (CDK2 Assay kit, Kinase-Glo MAX); assay type: biochemical; details: CDK2/CyclinA2, 30 °C 45 min; mean of three experiments ± SD; read-out: CDK2 Protein Kinase (IC50 in µM)
For each of the compounds below, state its IC50.
// units = µM; emit number, no label

Quick check: IC50 of Cc1[nH]c(=S)[nH]c(=O)c1S(=O)(=O)Nc1cccc(C(=O)C=Cc2ccc(Br)cc2)c1 ?
8.2

Quick check: IC50 of Cc1[nH]c(=S)[nH]c(=O)c1S(=O)(=O)Nc1ccc(Br)cc1 ?
0.485

Quick check: IC50 of Cc1[nH]c(=S)[nH]c(=O)c1S(=O)(=O)Nc1cccc(C(=O)C=Cc2ccc([N+](=O)[O-])cc2)c1 ?
0.81

Quick check: IC50 of Cc1[nH]c(=S)[nH]c(=O)c1S(=O)(=O)Nc1cccc(Cl)c1Cl ?
0.407

Quick check: IC50 of Cc1[nH]c(=S)[nH]c(=O)c1S(=O)(=O)Nc1ccc([N+](=O)[O-])cc1 ?
0.605

Quick check: IC50 of COc1ccc(NS(=O)(=O)c2c(C)[nH]c(=S)[nH]c2=O)cc1 ?
0.447

Quick check: IC50 of CC(=O)c1cccc(NS(=O)(=O)c2c(C)[nH]c(=S)[nH]c2=O)c1 ?
0.567

Quick check: IC50 of Cc1[nH]c(=S)[nH]c(=O)c1S(=O)(=O)Nc1cccc(C(=O)C=Cc2ccc(Cl)cc2)c1 ?
6.41
